- System: BJ, B16-F10, T47D, T47Dp53 and HeLa cells
- Assay info: Cell cycle assay (propidium iodide flow cytometry), cell line panel
- Format: cell-based
- Settings: 150 nM oligomeric compound, 4.5 μg/ml LIPOFECTIN, after 72 hours, propidium iodide flow cytometry
In the oligonucleotide strings, read from the 5' end, every base follows the letter of its sugar. An asterisk marks phosphorothioate; unmarked linkages are phosphodiester. Other units and linkages are bracketed, terminal groups are in braces. A string of capitals states the bases alone. e = 2'-O-(2-methoxyethyl) (MOE); [5mC] = 5-methylcytosine; d = 2'-deoxy (DNA)
Experimental endpoint: G1 (percentage of cells in phase of the cell cycle) (%)
Express your answer in %, writing the number without its unit.

328691 (e[5mC]*e[5mC]*e[5mC]*e[5mC]*eA*dT*d[5mC]*dT*dT*dA*dG*d[5mC]*dA*dT*d[5mC]*eT*eA*eA*eG*eG) [compound 328691] = 60.5
327878 (antisense e[5mC]*eT*eA*eG*eT*eG*eG*eT*e[5mC]*e[5mC]*eT*eA*eA*eA*e[5mC]*eA*eT*eT*eT*e[5mC]*eA*e[5mC]) [compound 327878] = 39.1
327888 (antisense eA*eA*eT*eG*e[5mC]*e[5mC]*e[5mC]*e[5mC]*eT*eA*eA*eA*eA*eA*eT*e[5mC]*e[5mC]*eT*eT*eA*eT) [compound 327888] = 53.7
328773 (antisense eT*eA*e[5mC]*eT*eT*dT*dA*d[5mC]*dT*d[5mC]*d[5mC]*dA*dA*dG*dG*eT*eT*eT*eT*eA) [compound 328773] = 56.4

Qu. Given the entry 328364 (eT*e[5mC]*eT*eT*eA*dA*dG*dT*d[5mC]*dA*d[5mC]*dA*dA*dA*dT*e[5mC]*eA*eG*e[5mC]*eA) [compound 328364] , what G1 (percentage of cells in phase of the cell cycle) was observed with BJ, B16-F10, T47D, T47Dp53 and HeLa cells?
Ans. 61.5

---

- Tested on: adipocytes
- Assay info: Triglyceride accumulation assay in adipocytes
- Type: cell-based, human
- Settings: adipocytes, 250 nM oligomeric compound, relative to control (1.0); Table 16
In the oligonucleotide strings, read from the 5' end, every base follows the letter of its sugar. An asterisk marks phosphorothioate; unmarked linkages are phosphodiester. Other units and linkages are bracketed, terminal groups are in braces. A string of capitals states the bases alone. e = 2'-O-(2-methoxyethyl) (MOE); [5mC] = 5-methylcytosine
Experimental endpoint: TG (triglyceride accumulation)

// below: answered substances
327942 (antisense e[5mC]*e[5mC]*eA*eT*e[5mC]*eT*eT*eT*eA*e[5mC]*e[5mC]*eA*eG*eA*e[5mC]*eA*eG*eT*eG*eT*eT) [compound 327942] = 0.85
327938 (antisense eA*eA*e[5mC]*eA*eA*eT*eA*e[5mC]*eA*eA*e[5mC]*eT*eT*eA*e[5mC]*eT*eA*e[5mC]*e[5mC]*eT*e[5mC]*eA) [compound 327938] = 1.05
327930 (antisense eA*e[5mC]*eT*eA*eT*eA*e[5mC]*eA*eA*e[5mC]*e[5mC]*eT*e[5mC]*e[5mC]*eT*eA*e[5mC]*e[5mC]*eT*e[5mC]*eA) [compound 327930] = 0.97
327901 (antisense eT*eG*eA*eG*e[5mC]*eT*eA*e[5mC]*eA*eG*eT*eG*e[5mC]*eT*eT*e[5mC]*eA*eT*e[5mC]*eT*e[5mC]*eA) [compound 327901] = 0.53

Qu. Param item = 327922 (antisense eT*e[5mC]*eA*eG*eT*eT*eT*eT*eG*e[5mC]*eA*eT*eG*eG*eA*eT*eT*eT*eG*e[5mC]*eA*e[5mC]*eA) [compound 327922] ; retrieve measured TG (triglyceride accumulation).
Ans. 0.43

---

- System: IL-6 mRNA
- Assay info: IL-6 mRNA in LPS-activated primary murine macrophages
- Format: cell-based, mouse
- Settings: 600 nM, +IFN, average of 3 treatments
In the oligonucleotide strings, read from the 5' end, every base follows the letter of its sugar. An asterisk marks phosphorothioate; unmarked linkages are phosphodiester. Other units and linkages are bracketed, terminal groups are in braces. A string of capitals states the bases alone. e = 2'-O-(2-methoxyethyl) (MOE); [5mC] = 5-methylcytosine; d = 2'-deoxy (DNA)
Experimental endpoint: IL-6 mRNA expression, % UTC (% UTC)
Answer format: numeric, % UTC implied, no suffix.

Worked cases, IL-6 mRNA expression, % UTC given:
342683 (antisense CCTTCCCTGAAGGTTCCTCCTT; scrambled control, further chemistry not given here) [compound 342683] = 149
327921 (antisense e[5mC]*eT*eT*e[5mC]*e[5mC]*eA*eG*eT*e[5mC]*eG*eG*eG*eG*eA*eT*eG*eT*eT*eT*eA*e[5mC]*eA) [compound 327921] = 313
289606 (antisense CCUUCCCUGAAGGUUCCUCC; all 2'-MOE, all C 5-methyl, all phosphorothioate, T or U not given here) [compound 289606] = 59
129690 (antisense TTAGAATACGTCGCGTTATG; sugars from the 5' end e5 d10 e5, all phosphorothioate, methylation of C not given here) [compound 129690] = 203
327941 (antisense eA*eA*e[5mC]*e[5mC]*e[5mC]*eA*e[5mC]*e[5mC]*eG*eA*e[5mC]*eA*eG*e[5mC]*eA*eA*eT*eG*eA*eA*eT*eG*eT*eT) [compound 327941] = 301

Qu. I am curious: what IL-6 mRNA expression, % UTC value has been reported for 229927 (antisense e[5mC]*e[5mC]*eA*e[5mC]*eA*dT*dT*dG*dA*dG*dT*dT*dT*d[5mC]*dT*eT*eT*eA*eA*eG) [compound 229927] ?
Ans. 69

---

- Test system: PPARγ
- Assay info: PPARγ mRNA expression in adipocytes (real-time PCR)
- Type: cell-based, human
- Settings: differentiating adipocytes transfected with oligomeric compound
In the oligonucleotide strings, read from the 5' end, every base follows the letter of its sugar. An asterisk marks phosphorothioate; unmarked linkages are phosphodiester. Other units and linkages are bracketed, terminal groups are in braces. A string of capitals states the bases alone. e = 2'-O-(2-methoxyethyl) (MOE); [5mC] = 5-methylcytosine; d = 2'-deoxy (DNA)
Item-by-item account of PPAR gamma mRNA

327956 (antisense e[5mC]*eA*e[5mC]*eA*eG*eT*eT*eG*e[5mC]*e[5mC]*eA*eG*e[5mC]*eT*eG*eA*eG*eA*eT*eT*eA) [compound 327956] = 91 percentage of untreated control (UTC)
327951 (antisense e[5mC]*eA*e[5mC]*eA*eA*eA*e[5mC]*e[5mC]*eA*eT*eT*eA*eT*eG*eT*eG*e[5mC]*eT*eG*e[5mC]*eT*eA) [compound 327951] = 84 percentage of untreated control (UTC)

Qu. What value of measured PPAR gamma mRNA is listed for 327904 (antisense eA*e[5mC]*eT*e[5mC]*eA*e[5mC]*e[5mC]*eG*eA*e[5mC]*eA*eG*e[5mC]*eG*eT*eT*eG*eA*eA*eT*eG*eT*eT) [compound 327904] ?
Ans. 54 percentage of untreated control (UTC)

Qu. Please give the measured PPAR gamma mRNA for this substance: 328417 (antisense eT*eA*eA*eT*eT*dT*dT*dA*dG*dA*dA*dT*d[5mC]*dT*dT*eA*eA*e[5mC]*eG*e[5mC]) [compound 328417]
Ans. 94 percentage of untreated control (UTC)

---

- System: mir-21 miRNA
- Assay info: pGL3-mir-21 sensor luciferase assay in HeLa cells
- Assay type: cell-based, human
- Settings: Table 50, pGL3-mir-21 sensor-expressing HeLa cells, 50 nM, normalized to pRL-CMV
In the oligonucleotide strings, read from the 5' end, every base follows the letter of its sugar. An asterisk marks phosphorothioate; unmarked linkages are phosphodiester. Other units and linkages are bracketed, terminal groups are in braces. A string of capitals states the bases alone. e = 2'-O-(2-methoxyethyl) (MOE); [5mC] = 5-methylcytosine; d = 2'-deoxy (DNA)
Experimental endpoint: luciferase expression % UTC (% UTC)
Numeric only. Scale: % UTC

Please review the entries below; each comes with its answer.
358768 (eA*eG*eG*eT*eG*eG*eT*eA*e[5mC]*eA*eG*e[5mC]*e[5mC]*eA*eT*eG*eG*eA*eG*eA) [compound 358768] = 118
327917 (antisense eT*e[5mC]*eA*eA*e[5mC]*eA*eT*e[5mC]*eA*eG*eT*e[5mC]*eT*eG*eA*eT*eA*eA*eG*e[5mC]*eT*eA) [compound 327917] = 4534
342683 (antisense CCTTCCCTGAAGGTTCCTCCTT; scrambled control, further chemistry not given here) [compound 342683] = 108

Pending substance:
Qu. Requested read-out: luciferase expression % UTC. Entry: 345382 (TCAACATCAGTCTGATAAGCTA; sugars from the 5' end e5 d10 e7, all phosphorothioate, methylation of C not given here) [compound 345382]
Ans. 95
